- system.under.test: human A2a receptor (Homo sapiens, UniProt P29274)
- Construct: purchased Perkin-Elmer RBHA2AM400UA; host or cells: HEK293 cells (membranes)
- Sequence (P29274 whole entry): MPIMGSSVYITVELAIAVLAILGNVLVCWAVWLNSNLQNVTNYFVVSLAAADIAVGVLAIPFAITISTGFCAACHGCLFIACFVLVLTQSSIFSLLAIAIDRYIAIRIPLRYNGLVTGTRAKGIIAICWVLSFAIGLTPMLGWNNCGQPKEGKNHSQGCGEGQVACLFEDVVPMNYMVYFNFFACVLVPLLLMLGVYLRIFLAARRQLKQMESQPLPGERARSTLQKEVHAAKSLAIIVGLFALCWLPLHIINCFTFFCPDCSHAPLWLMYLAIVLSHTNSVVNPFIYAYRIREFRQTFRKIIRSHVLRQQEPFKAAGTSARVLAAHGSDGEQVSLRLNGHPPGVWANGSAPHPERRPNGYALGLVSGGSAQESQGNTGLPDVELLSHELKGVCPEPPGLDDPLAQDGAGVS
- test: Competition binding assay using Scintillation Proximity technology (A2a activity)
- recorded.conditions: membranes from HEK293 cells expressing the human A2a receptor; 0.5 nM tritiated ligand; Cheng-Prusoff
pKi: −log10 of the molar value.
property.measured: pKi

- smiles.record: "COc1cccc2c1nc(N)n1nc(CN3Cc4ccc(F)cc4C3)cc21"
  property.measured: "pKi"
  endpoint.value: 7.62
- smiles.record: "COc1cccc2c1nc(N)n1nc(-c3nnc(N4CCN(c5ccccc5)CC4)o3)cc21"
  property.measured: "pKi"
  endpoint.value: 7.48
- smiles.record: "COc1cccc2c1nc(N)n1nc(Cc3cccc(-n4nc(C)cc4C)c3)cc21"
  property.measured: "pKi"
  endpoint.value: 6.86
- smiles.record: "COc1cccc2c1nc(N)n1nc(Cc3ccc(N4CCCCC4)cc3)cc21"
  property.measured: "pKi"
  endpoint.value: 6.87
- smiles.record: "COc1cccc2c1nc(N)n1nc(C(=O)N3CCN(Cc4ccc(F)cc4)CC3)cc21"
  property.measured: "pKi"
  endpoint.value: 7.96
